Recorded Fold potency reduction vs bp1-01 for the following binders
- tested.system: T1, IGFBP-1 (UniProt P08833 26-259)
- T1 construct: in kinetics immobilised on a CM chip by EDC/NHS; biotinylated in the phage selection
- T1 sequence (looked up): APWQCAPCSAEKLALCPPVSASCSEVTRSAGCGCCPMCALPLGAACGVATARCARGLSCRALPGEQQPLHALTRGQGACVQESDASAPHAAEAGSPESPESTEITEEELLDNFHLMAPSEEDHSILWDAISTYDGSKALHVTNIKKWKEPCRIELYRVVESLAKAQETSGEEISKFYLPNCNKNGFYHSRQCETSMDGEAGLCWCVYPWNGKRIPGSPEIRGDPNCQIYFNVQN
- assay.explanation: BIAcore inhibition of the interaction of IGFBP-1 with IGF-1
Positions of bridges follow the written chain, without caps; N, C: chain ends. No end group written: not given here.

Query :: Supply measured Fold potency reduction vs bp1-01 of Ac-RAGPLEWLAEKYEG (linker 6-13 via 1,5‑diaminopentane, also called locked-helix variant of bp1-01) [(i+7)D] in your reply.
Result :: 7.7 fold

Further cases:
Query :: Supply measured Fold potency reduction vs bp1-01 of Ac-PLEWLAEKYEG (linker 3-10 via 1,5‑diaminopentane, also called locked-helix variant of bp1-01) [(i+7)C] in your reply.
Result :: 20 fold

Query :: Supply measured Fold potency reduction vs bp1-01 of Ac-CRAGPLQELCEKYAE (disulfide 1-10 (inferred); linker 8-15 via 1,5‑diaminopentane, W8 and G15 replaced by the cross-linking Glu residues, F14 replaced by Ala; also called locked-helix variant of bp1-01) [(i+7)A] in your reply.
Result :: 40 fold

Query :: Supply measured Fold potency reduction vs bp1-01 of Ac-RAGPLEWLAEKYFE (linker 6-14 via 1,5‑diaminopentane, also called locked-helix variant of bp1-01) [(i+8)C] in your reply.
Result :: 5.9 fold

Query :: Supply measured Fold potency reduction vs bp1-01 of Ac-LEWLAEKYEG (linker 2-9 via 1,5‑diaminopentane, also called locked-helix variant of bp1-01) [(i+7)B] in your reply.
Result :: > 360 fold

Query :: Supply measured Fold potency reduction vs bp1-01 of Ac-RPLEWLAEKYFE (linker 4-12 via 1,5‑diaminopentane, also called locked-helix variant of bp1-01) [(i+8)B] in your reply.
Result :: 7.7 fold
